Assay: Tmax in Sprague-Dawley rat at 9 mg/kg, po measured after 12 hrs by LC-MS/MS analysis
Assay type: ADME, organism-based
Conditions: in vivo
measured_metric: Tmax (min)
Number only, in min; omit the unit.

Query: Fill in the blank: the reported Tmax of `COc1cc(C(=O)O)cc2sc(N3CCN(Cc4c(-c5c(Cl)cccc5Cl)noc4C4CC4)C[C@H]3C)nc12` is ____.
Reply: 30

====

Assay: Oral bioavailability in Sprague-Dawley rat at 9 mg/kg measured after 12 hrs by LC-MS/MS analysis
Format: ADME, organism-based
Details: in vivo
measured_metric: bioavailability (%)
Number only, in %; omit the unit.

Query: Fill in the blank: the reported bioavailability of `COc1cc(C(=O)O)cc2sc(N3CCN(Cc4c(-c5c(Cl)cccc5Cl)noc4C4CC4)C[C@H]3C)nc12` is ____.
Reply: 52.1
